Hello, the source for this data is paper PMC8154566, in case you need it.

- System: L. donovani amastigotes
- assay info: INMAC assay: intramacrophage L. donovani in differentiated THP-1 cells
- Format: cell-based, Leishmania donovani
- stated conditions: Leishmania donovani, THP-1; Table 6; at least three replicates, SD ≤0.4; read-out: INMAC pEC50 (converted)
recorded endpoint: EC50 (nM)
Give bare numbers, in nM.

Some solved cases for reference:
CC1CN(c2cnc3nc(-c4cc(NC(=O)N5CCCC5)ccc4F)ccn23)CCO1 (stereo not shown) ... 794
CN1CCOCC1c1cnc2nc(-c3cc(NC(=O)N4CCCC4)ccc3F)ccn12 (stereo not shown) ... 5010
O=C(Nc1ccc(F)c(-c2ccn3c(N4CCCCC4)cnc3n2)c1)N1CCCC1 ... 501

Request: For the molecule CC(C)Nc1cnc2nc(-c3cc(NC(=O)N4CCCC4)ccc3F)ccn12 , what EC50 is on record?
Result: 2510
